Origin of measurements: ChEMBL document CHEMBL3808363

Kindly state pIC50 for each of the entries shown.
- protocol: Cytotoxicity against human HCT116 cells assessed as inhibition of cell growth after 72 hrs by MTT assay
- Assay type: functional, cell-based
- condition_parameters: HCT-116, 72 h
// field semantics: pIC50 = negative decimal log of concentration (mol/L)

The measured pIC50 associated with O=C1CS/C(=N\c2nc3cc(-c4ccc(Cl)cc4)[se]c3s2)N1 reads 4.36

The measured pIC50 associated with COc1ccc(/C=C2/S/C(=N\c3nc4cc(-c5ccc(Cl)cc5)sc4s3)NC2=O)cc1 reads 5.04

The measured pIC50 associated with O=C1N/C(=N/c2nc3cc(-c4ccc(Br)cc4)sc3s2)S/C1=C/c1ccc(Cl)cc1 reads 4.81

The measured pIC50 associated with O=C1CS/C(=N\c2nc3cc(-c4ccc(Cl)cc4)sc3s2)N1 reads 4.84

* * *

- subject_of_test: M-phase inducer phosphatase 1 (Homo sapiens, UniProt P30304)
- Sequence (P30304 whole entry): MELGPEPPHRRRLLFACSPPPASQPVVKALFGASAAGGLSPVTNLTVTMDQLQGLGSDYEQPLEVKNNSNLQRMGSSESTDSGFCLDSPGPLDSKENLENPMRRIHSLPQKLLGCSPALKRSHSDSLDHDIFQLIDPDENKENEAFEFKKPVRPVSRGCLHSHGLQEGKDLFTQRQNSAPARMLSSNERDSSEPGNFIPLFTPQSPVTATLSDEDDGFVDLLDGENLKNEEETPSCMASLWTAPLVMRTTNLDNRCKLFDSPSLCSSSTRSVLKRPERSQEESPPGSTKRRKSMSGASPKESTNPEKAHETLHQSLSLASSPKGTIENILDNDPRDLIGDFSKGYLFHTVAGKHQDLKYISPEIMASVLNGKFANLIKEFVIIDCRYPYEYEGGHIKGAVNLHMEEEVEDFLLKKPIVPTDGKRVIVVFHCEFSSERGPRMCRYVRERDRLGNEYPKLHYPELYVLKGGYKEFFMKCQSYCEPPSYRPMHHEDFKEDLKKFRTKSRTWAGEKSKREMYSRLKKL
- protocol: Mixed type inhibition of human recombinant full length GST-tagged CDC25A transfected in Escherichia coli BL21-DE3 assessed as enzyme/substrate/inhibitor complex using 3-O-methylfluorescein phosphate as substrate at 20 uM incubated for 20 mins followed by substrate addition measured every 10 mins for 2 hrs by fluorimetric assay
experimental_readout: Ki (µM)
Answer in µM, number only, no unit symbol.

The measured Ki associated with COc1ccc(/C=C2/S/C(=N\c3nc4cc(-c5ccc(Cl)cc5)sc4s3)NC2=O)cc1 reads 3.9
